- Test system: K562 cells, human proerythroblast cells
- PROCEDURE_TEXT: Hemoglobin production in K562 cells (fluorescence of the porphyrin ring)
- Type: cell-based
- TEST_CONTEXT: 144 h, test compound 6 μM, 3+3 days, non-stimulated state = 100%, read-out: production amount of hemoglobin, % of control (6 μM)
Where a name gives a salt, the structure may show the parent alone.
# strict inequality: activity at 6 µM < 300% yields MET, everything else yields NOT MET

Problem: is_below(activity at 6 µM, 300%) for CC(=O)N1c2ccccc2[C@H](Nc2ccc(Cc3ccccc3)cc2)C[C@@H]1C (relative stereo) [Compound 112] ?
Solution: MET

Problem: is_below(activity at 6 µM, 300%) for CC(=O)N1c2c(Br)cccc2C(Nc2ccccc2)CC1C (centres unmarked) [Compound 63] ?
Solution: MET

Problem: is_below(activity at 6 µM, 300%) for CC(=O)N1CCN(c2ccc3c(c2)C(Nc2ccc(CC(=O)O)cc2)CC(C)N3C(C)=O)CC1 (centres unmarked) [Compound 91] ?
Solution: MET

Problem: is_below(activity at 6 µM, 300%) for CC(=O)N1c2ccc(N3CCN(C(=O)NC(C)C)CC3)cc2C(Nc2ccc(Cl)cc2)CC1C (centres unmarked) [Compound 88] ?
Solution: MET

Problem: is_below(activity at 6 µM, 300%) for CC1CC(Nc2ccccc2)c2ccccc2N1C(=O)C1CC1 (centres unmarked) [Compound 47] ?
Solution: NOT MET

Problem: is_below(activity at 6 µM, 300%) for CC(=O)N1c2c(F)cccc2[C@H](Oc2ccccc2)C[C@@H]1C (relative stereo) [Compound 33] ?
Solution: MET

Problem: is_below(activity at 6 µM, 300%) for CC(=O)N1c2ccc(-c3nnn[nH]3)cc2C(Nc2ccc(Cl)cc2)CC1C (centres unmarked) [Compound 119] ?
Solution: MET

Problem: is_below(activity at 6 µM, 300%) for COc1cccc2c1N(C(C)=O)C(C)CC2Nc1ccccc1 (centres unmarked) [Compound 61] ?
Solution: MET

Problem: is_below(activity at 6 µM, 300%) for CC(=O)N1CCN(c2ccc3c(c2)C(Nc2ccc(N4CCOCC4)cc2)CC(C)N3C(C)=O)CC1 (centres unmarked) [Compound 94, hydrochloride] ?
Solution: MET

Problem: is_below(activity at 6 µM, 300%) for COc1cccc(NC2CC(C)N(C(C)=O)c3ccccc32)c1 (centres unmarked) [Compound 11] ?
Solution: NOT MET

Problem: is_below(activity at 6 µM, 300%) for CCN(CC)C(=O)N1CCN(c2ccc3c(c2)C(Nc2ccc(Cl)cc2)CC(C)N3C(C)=O)CC1 (centres unmarked) [Compound 87] ?
Solution: MET

Problem: is_below(activity at 6 µM, 300%) for CCC(=O)N1c2ccccc2C(Nc2ccccc2)CC1C (centres unmarked) [Compound 3] ?
Solution: NOT MET

Problem: is_below(activity at 6 µM, 300%) for CC(=O)N1c2ccccc2[C@H](Nc2ccc(N3CCN(S(C)(=O)=O)CC3)cc2)C[C@@H]1C (relative stereo) [Compound 78] ?
Solution: MET

Problem: is_below(activity at 6 µM, 300%) for CC(=O)N1c2ccccc2C(Nc2ccc(N3CCOCC3)cc2)CC1C (centres unmarked) [Compound 19] ?
Solution: MET

Problem: is_below(activity at 6 µM, 300%) for CC(=O)N1c2ccc(F)cc2C(Nc2ccc(CC(N)=O)cc2)CC1C (centres unmarked) [Compound 124] ?
Solution: MET

Problem: is_below(activity at 6 µM, 300%) for COC(=O)c1cc(NC2CC(C)N(C(C)=O)c3ccccc32)ccc1O (centres unmarked) [Compound 108] ?
Solution: NOT MET

Problem: is_below(activity at 6 µM, 300%) for CC(=O)N1c2ccc(C(N)=O)cc2[C@H](Nc2ccc(NS(C)(=O)=O)cc2)C[C@@H]1C (relative stereo) [Compound 102] ?
Solution: MET
